A collection of molecules and their measured IC50
test system: UniProtKB Q99705
test description: FLIPR/FDSS6000 functional assay: intracellular Ca2+ changes evoked by MCH
Assay type: cell-based
particulars: antagonist activity, 50 nM of MCH, [Ca2+]i by FLIPR or FDSS; read-out: IC50
Where a name gives a salt, the structure may show the parent alone.

| molecule | test system | IC50 |
| --- | --- | --- |
| Cc1nc(N[C@H]2CC[C@@H](NC(=O)c3ccc(F)cc3)CC2)cc(N(C)C)n1 [Example 7, hydrochloride] | UniProtKB Q99705 | 101 nM |
| Cc1nc(N[C@H]2CC[C@@H](NC(=O)c3cccc(Cl)c3)CC2)cc(N(C)C)n1 [Example 24, hydrochloride] | UniProtKB Q99705 | 26 nM |

###

test system: MCH receptor (Homo sapiens)
test description: FLIPR/FDSS6000 functional assay: intracellular Ca2+ changes evoked by MCH
Type: cell-based
particulars: class by percent of control at 10^−7 M or by IC50; antagonist activity, 50 nM of MCH; read-out: class
Source text: Subsequently, a functional based assay was used to confirm the lead hits, referred to as FLIPR™ (the Fluorometric Imaging Plate Reader) and FDSS6000™ (Functional Drug Screening System). […] Fluorometric Imaging Plate Reader system was used to allow for rapid, kinetic measurements of intracellular fluorescence in 96 well microplates (or 384 well microplates). Simultaneous measurements of fluorescence in all wells can be made by FLIPR or FDSS6000™ every second with high sensitivity and precision. […]
Counter-ions that a name gives are not always drawn.
A collection of molecules and their measured IC50
readout: IC50

| molecule | test system | readout | measured value |
| --- | --- | --- | --- |
| Cc1nc(N[C@H]2CC[C@@H](NC(=O)c3cc(F)cc(C(F)(F)F)c3)CC2)cc(N(C)C)n1 [Example 26, hydrochloride] | MCH receptor (Homo sapiens) | IC50 | 0.05 to 0.2 µM |
| Cc1nc(NC[C@H]2CC[C@@H](NC(=O)c3ccc(F)c(F)c3)CC2)cc(N(C)C)n1 [Example 28, hydrochloride] | MCH receptor (Homo sapiens) | IC50 | > 0.2 µM |
| Cc1nc(N[C@H]2CC[C@@H](NC(=O)c3ccc(Cl)cc3)CC2)cc(N(C)C)n1 [Example 25, hydrochloride] | MCH receptor (Homo sapiens) | IC50 | 0.05 to 0.2 µM |
| CN(C)c1cc(NC[C@H]2CC[C@@H](NC(=O)c3ccc(F)c(F)c3)CC2)ncn1 [Example 3, hydrochloride] | MCH receptor (Homo sapiens) | IC50 | > 0.2 µM |
| Cc1nc(Cl)cc(N[C@H]2CC[C@@H](NC(=O)c3cc(F)c(F)c(F)c3)CC2)n1 | MCH receptor (Homo sapiens) | IC50 | > 0.2 µM |
| CNc1cc(N[C@H]2CC[C@@H](NC(=O)c3ccc(F)c(F)c3)CC2)nc(C)n1 [Example 30, hydrochloride] | MCH receptor (Homo sapiens) | IC50 | > 0.2 µM |
| Cc1nc(N[C@H]2CC[C@@H](NC(=O)c3cc(F)c(F)c(F)c3)CC2)cc(N(C)Cc2ccccc2)n1 [Example 175, hydrochloride] | MCH receptor (Homo sapiens) | IC50 | > 0.2 µM |
| Cc1nc(N[C@H]2CC[C@@H](NC(=O)c3ccc(F)c(Cl)c3)CC2)cc(-n2ccnc2)n1 [Example 38, dihydrochloride] | MCH receptor (Homo sapiens) | IC50 | > 0.2 µM |
| Cc1nc(N[C@H]2CC[C@@H](NC(=O)c3ccc(OC(F)(F)F)c(Cl)c3)CC2)cc(N(C)C)n1 [Example 16, hydrochloride] | MCH receptor (Homo sapiens) | IC50 | 0.05 to 0.2 µM |
| Cc1nc(N[C@H]2CC[C@@H](C(=O)Oc3ccc(F)c(F)c3)CC2)cc(N(C)C)n1 [Example 196, hydrochloride] | MCH receptor (Homo sapiens) | IC50 | > 0.2 µM |
| Cn1cnc2c(N[C@H]3CC[C@@H](NC(=O)c4ccc(F)c(Cl)c4)CC3)ncnc21 [Example 190, hydrochloride] | MCH receptor (Homo sapiens) | IC50 | > 0.2 µM |
| Cn1ccc2c(N[C@H]3CC[C@@H](NC(=O)c4ccc(F)c(Cl)c4)CC3)ncnc21 [Example 187, hydrochloride] | MCH receptor (Homo sapiens) | IC50 | 0.05 to 0.2 µM |

###

A collection of molecules and their measured IC50
test system: MCH receptor (Homo sapiens, UniProt Q99705)
test description: FLIPR/FDSS6000 functional assay: intracellular Ca2+ changes evoked by MCH
Format: cell-based
particulars: class by percent of control at 10^−7 M or by IC50; antagonist activity, 50 nM of MCH; read-out: class
Where a name gives a salt, the structure may show the parent alone.
readout: IC50

| molecule | measured value |
| --- | --- |
| CN(CCO)c1nccc(N[C@H]2CC[C@@H](NC(=O)c3ccc(F)c(F)c3)CC2)n1 [Example 36, hydrochloride] | > 200 nM |
| CN(C)c1cc(N[C@H]2CC[C@@H](NCc3ccc(Br)cc3OC(F)(F)F)CC2)ncn1 [Example 1, dihydrochloride] | > 200 nM |
| Cc1nc(N[C@H]2CC[C@@H](NC(=O)c3ccc(F)c(Cl)c3)CC2)cc(N2CCOCC2)n1 [Example 39, hydrochloride] | 50 to 200 nM |
| Cc1nc(N[C@H]2CC[C@@H](C(=O)Nc3ccc(F)c(Cl)c3)CC2)cc(N(C)C)n1 [Example 191, hydrochloride] | < 50 nM |
| Cc1nc(N[C@H]2CC[C@@H](NC(=O)c3ccc(F)c(C(F)(F)F)c3)CC2)cc(N(C)C)n1 [Example 14, hydrochloride] | < 50 nM |

###

test system: MCH receptor (Homo sapiens, UniProt Q99705)
test description: FLIPR/FDSS6000 functional assay: intracellular Ca2+ changes evoked by MCH
Assay type: cell-based
particulars: class by percent of control at 10^−7 M or by IC50; antagonist activity, 50 nM of MCH; read-out: class
Where a name gives a salt, the structure may show the parent alone.

| compound | IC50 |
| --- | --- |
| CN(C)c1cc(N[C@H]2CC[C@@H](NC(=O)c3ccc(F)c(Cl)c3)CC2)nc(Cc2ccccc2)n1 [Example 179, hydrochloride] | < 50 nM |
| Cc1nc(N[C@H]2CC[C@@H](NC(=O)c3cccc(C(F)(F)F)c3)CC2)cc(N(C)C)n1 [Example 17, hydrochloride] | < 50 nM |
| CN(C)c1cc(N[C@H]2CC[C@@H](CNC(=O)c3ccc(F)c(F)c3)CC2)ncn1 [Example 4, hydrochloride] | > 200 nM |
| Cc1nc(N[C@H]2CC[C@@H](NC(=O)c3ccc(F)c(Cl)c3)CC2)cc(N(C)C)n1 [Example 6, hydrochloride] | < 50 nM |
| Cc1cc(N[C@H]2CC[C@@H](NC(=O)c3ccc(F)c(Cl)c3)CC2)nc(N(C)C)n1 [Example 45, hydrochloride] | 50 to 200 nM |
| Cc1nc(N[C@H]2CC[C@@H](NC(=O)c3ccc(OC(F)(F)F)cc3)CC2)cc(N(C)C)n1 [Example 20, hydrochloride] | > 200 nM |
| Cc1nc(N[C@H]2CC[C@@H](NC(=O)c3cc(Cl)cc(Cl)c3)CC2)cc(N(C)C)n1 [Example 21, hydrochloride] | < 50 nM |
| Cc1nc(N[C@H]2CC[C@@H](C(=O)Nc3cc(Cl)cc(Cl)c3)CC2)cc(N(C)C)n1 [Example 195, hydrochloride] | > 200 nM |
| Cc1nc(N[C@H]2CC[C@@H](C(=O)Nc3cc(F)c(F)c(F)c3)CC2)cc(N(C)C)n1 [Example 193, hydrochloride] | < 50 nM |
| Cc1nc(N[C@H]2CC[C@@H](NC(=O)c3cc(F)cc(Cl)c3)CC2)cc(N(C)C)n1 [Example 10, hydrochloride] | < 50 nM |
| Cc1nc(N[C@H]2CC[C@@H](NC(=O)c3ccc(C(F)(F)F)c(F)c3)CC2)cc(N(C)C)n1 [Example 15, hydrochloride] | > 200 nM |
| Cc1nc(N[C@H]2CC[C@@H](NS(=O)(=O)c3ccc(F)c(Cl)c3)CC2)cc(N(C)C)n1 [Example 182, hydrochloride] | > 200 nM |
| CN(C)c1cc(N[C@H]2CC[C@@H](NC(=O)c3ccc(F)c(F)c3)CC2)ncn1 [Example 2, hydrochloride] | 50 to 200 nM |
| CNc1cc(N[C@H]2CC[C@@H](NC(=O)c3ccc(F)c(Cl)c3)CC2)nc(C)n1 [Example 31, hydrochloride] | 50 to 200 nM |
| Cc1nc(N[C@H]2CC[C@@H](NC(=O)c3cc(F)c(F)c(F)c3)CC2)cc(N(C)c2ccccc2)n1 [Example 174, hydrochloride] | > 200 nM |
| Cc1nc(N[C@H]2CC[C@@H](NC(=O)c3ccc(F)c(Cl)c3)CC2)c(F)c(N(C)C)n1 [Example 181, hydrochloride] | > 200 nM |
